Tested on: KM12 colon
Test: NCI-60 one-dose screen, 48 h (100 = growth as untreated, 0 = no growth, -100 = all killed)
Details: 10 µM unless noted
Compounds without any hit were thinned out: in the full panel of roughly 83,000, 20% have a hit.
I'd appreciate it if you marked entries Condition met when growth is lower than 60% and Condition not met when it is not.

Here's an entry: CC(c1ccccc1)N1C(=O)C(C2SC(=S)N(C(C)c3ccccc3)C2=O)SC1=S (stereo not given) . Is its growth below 60%?
Condition not met

Here's an entry: c1ccc(-c2nc(Nc3ccc(-c4nc5ccccc5[nH]4)cc3)nc(N3CCOCC3)n2)cc1 . Is its growth below 60%?
Condition met

Here's an entry: COc1ccc(-c2n[nH]nc2-c2cc3ccccc3s2)cc1O . Is its growth below 60%?
Condition met

Here's an entry: Cc1cc(N(CCCNc2ccnc3cc(Cl)ccc23)Cc2ccco2)nc(N2CCN(C)CC2)n1 . Is its growth below 60%?
Condition not met

Here's an entry: Cc1cccc(C)c1NC(=O)CSC(=S)N1CCCCC1 . Is its growth below 60%?
Condition not met

Here's an entry: CN(C)c1ccc(C(=O)c2ccc(N(C)C)c(N)c2)cc1N . Is its growth below 60%?
Condition met

Here's an entry: O=S(=O)(NCCNc1cc(-c2cn(-c3ccccc3)nc2-c2cccc(O)c2)ccn1)c1ccccc1 . Is its growth below 60%?
Condition met

Here's an entry: O=C1c2ccccc2NC(c2cn(-c3ccccc3)nc2-c2cccnc2)N1Cc1ccccc1 (stereo not given) . Is its growth below 60%?
Condition not met

Here's an entry: Cn1cc(-c2csc(-c3cn(C(=O)OC(C)(C)C)c4ccccc34)n2)c2cccnc21 . Is its growth below 60%?
Condition met

Here's an entry: Cc1cc2nc3c4cc(N)ccc4n(CCN(C)C)c3nc2cc1C . Is its growth below 60%?
Condition met
